Origin of the recorded values: paper PMC9226319

Below, each of the compounds is paired with its reported k value.
- experimental-parameters: rat, single SC dose 16 µmol/kg

Below: 4 compounds and their reported k.
C=CCN1CC[C@]23c4c5ccc(O)c4O[C@H]2[C@@H](OCCOCCOCCOCCOCCOCCOCCOC)CC[C@@]3(O)[C@H]1C5 [Naloxegol, reference compound] : 0.79 ± 0.02 h⁻¹
C=CCN1CC[C@]23c4c5ccc(O)c4O[C@H]2[C@@H](OCc2cn(CCNCCCCCCOc4cc(OCCCc6c(C)n[nH]c6C)cc(C(=O)O)c4)nn2)CC[C@@]3(O)[C@H]1C5 : 0.20 ± 0.04 h⁻¹
COc1ccc2c3c1O[C@H]1[C@@H](OCc4cn(CCNCCCCCCOc5cc(OCCCc6c(C)n[nH]c6C)cc(C(=O)O)c5)nn4)CC[C@@]4(O)[C@@H](C2)N(C)CC[C@]314 : 0.15 ± 0.02 h⁻¹
COc1ccc2c3c1O[C@H]1C(=O)CC[C@@]4(O)[C@@H](C2)N(C)CC[C@]314 [Oxycodone, reference compound] : 0.9 ± 0.12 h⁻¹

Continue with the next compound.
Asked: Can you share its k? I mean this compound: C=CCN1CC[C@]23c4c5ccc(O)c4O[C@H]2C(=O)CC[C@@]3(O)[C@H]1C5 [Naloxone, reference compound]
Given back: 1.03 ± 0.1 h⁻¹
